Origin of measurements: patent US9108903B2

# MEASURED ON: human Nav1.8 (Homo sapiens (Human), UniProt Q9Y5Y9)
# Sequence (Q9Y5Y9 whole entry): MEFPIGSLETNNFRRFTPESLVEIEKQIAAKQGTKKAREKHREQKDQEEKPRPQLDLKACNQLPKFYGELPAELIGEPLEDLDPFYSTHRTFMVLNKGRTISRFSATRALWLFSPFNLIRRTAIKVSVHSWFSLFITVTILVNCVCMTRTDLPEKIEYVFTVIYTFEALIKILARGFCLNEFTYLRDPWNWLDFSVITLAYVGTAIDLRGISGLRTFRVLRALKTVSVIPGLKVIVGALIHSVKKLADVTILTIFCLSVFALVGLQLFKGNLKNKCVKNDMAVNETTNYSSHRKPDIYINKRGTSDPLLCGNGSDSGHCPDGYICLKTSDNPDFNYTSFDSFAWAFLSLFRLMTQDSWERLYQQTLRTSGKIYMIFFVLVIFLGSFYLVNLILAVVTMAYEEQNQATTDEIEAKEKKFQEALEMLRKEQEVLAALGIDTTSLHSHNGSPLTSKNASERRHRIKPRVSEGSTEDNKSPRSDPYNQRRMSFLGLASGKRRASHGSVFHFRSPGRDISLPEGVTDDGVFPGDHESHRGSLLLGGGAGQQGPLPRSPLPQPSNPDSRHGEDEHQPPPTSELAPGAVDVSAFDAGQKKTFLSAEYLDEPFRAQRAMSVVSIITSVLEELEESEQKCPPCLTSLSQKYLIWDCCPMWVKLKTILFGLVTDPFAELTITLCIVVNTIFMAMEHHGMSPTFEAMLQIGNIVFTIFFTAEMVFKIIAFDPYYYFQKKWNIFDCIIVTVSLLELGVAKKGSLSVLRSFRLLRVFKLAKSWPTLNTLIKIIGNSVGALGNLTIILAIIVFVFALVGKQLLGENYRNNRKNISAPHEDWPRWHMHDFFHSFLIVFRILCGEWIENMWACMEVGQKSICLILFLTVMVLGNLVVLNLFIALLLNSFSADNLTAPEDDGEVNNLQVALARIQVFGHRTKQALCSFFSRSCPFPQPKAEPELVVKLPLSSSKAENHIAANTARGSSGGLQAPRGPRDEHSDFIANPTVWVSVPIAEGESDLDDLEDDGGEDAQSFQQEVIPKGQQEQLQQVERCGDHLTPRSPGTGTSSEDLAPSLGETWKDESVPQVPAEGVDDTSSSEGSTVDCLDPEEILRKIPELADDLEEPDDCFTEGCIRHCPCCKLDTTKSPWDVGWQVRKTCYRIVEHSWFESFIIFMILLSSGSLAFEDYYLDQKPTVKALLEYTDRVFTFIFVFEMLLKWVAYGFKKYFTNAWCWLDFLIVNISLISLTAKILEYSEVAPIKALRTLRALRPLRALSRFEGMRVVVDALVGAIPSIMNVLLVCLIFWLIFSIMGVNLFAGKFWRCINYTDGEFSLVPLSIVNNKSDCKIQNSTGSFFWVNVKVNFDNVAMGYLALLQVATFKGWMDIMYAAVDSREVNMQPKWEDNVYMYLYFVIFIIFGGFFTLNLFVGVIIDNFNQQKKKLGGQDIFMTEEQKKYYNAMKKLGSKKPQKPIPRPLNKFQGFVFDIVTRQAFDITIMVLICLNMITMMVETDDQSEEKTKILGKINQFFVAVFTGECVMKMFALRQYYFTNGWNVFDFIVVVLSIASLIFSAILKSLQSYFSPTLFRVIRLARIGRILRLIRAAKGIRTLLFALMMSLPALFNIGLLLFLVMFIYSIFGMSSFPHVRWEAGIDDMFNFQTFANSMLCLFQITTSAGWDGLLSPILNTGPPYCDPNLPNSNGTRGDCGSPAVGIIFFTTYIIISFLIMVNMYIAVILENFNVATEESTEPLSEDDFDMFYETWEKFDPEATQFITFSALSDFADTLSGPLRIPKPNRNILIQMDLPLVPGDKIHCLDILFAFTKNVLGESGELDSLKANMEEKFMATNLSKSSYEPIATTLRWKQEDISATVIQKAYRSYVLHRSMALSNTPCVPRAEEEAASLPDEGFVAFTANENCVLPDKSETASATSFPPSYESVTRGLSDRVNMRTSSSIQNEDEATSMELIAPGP
# ASSAY INFO: E-VIPR optical membrane potential assay with electrical stimulation
# CONDITION DESCRIPTION: HEK cells expressing human Nav1.8
OUTCOME MEASURE: IC50 (nM)
Response body: numeric value in nM, unit text excluded.

{"MOLECULE SMILES": "O=C(O)c1ccc(NC(=O)c2ccc(C(F)(F)F)cc2Oc2ccc(OC(F)(F)F)cc2)cc1", "IC50 [nM]": 37}
{"MOLECULE SMILES": "O=C(O)c1ccc(NC(=O)c2ccc(C(F)(F)F)cc2Oc2ccc(F)cc2Cl)cc1", "IC50 [nM]": 58}

Query: What value of measured IC50 is listed for `Cc1cc(Cl)ccc1Oc1ccc(C(F)(F)F)cc1C(=O)Nc1ccc(C(=O)O)nc1` ?
Reply: 145

Query: What value of measured IC50 is listed for `Cc1cc(F)ccc1Oc1ccc(C(F)(F)F)cc1C(=O)Nc1ccc(C(=O)O)cc1` ?
Reply: 245

Query: What value of measured IC50 is listed for `O=C(O)c1ccc(NC(=O)c2cc(Cl)c(Cl)cc2Oc2ccc(F)cc2F)cn1` ?
Reply: 31

Query: What value of measured IC50 is listed for `COc1cc(F)ccc1Oc1cc(Cl)c(Cl)cc1C(=O)Nc1ccc(C(=O)O)cc1` ?
Reply: 11

Query: What value of measured IC50 is listed for `O=C(O)c1ccc(NC(=O)c2ccc(C(F)(F)C(F)(F)F)cc2Oc2ccc(F)cc2)cn1` ?
Reply: 110

Query: What value of measured IC50 is listed for `O=C(O)c1ccc(NC(=O)c2ccc(C(F)(F)F)cc2Oc2ccc(F)cc2F)cc1` ?
Reply: 145

Query: What value of measured IC50 is listed for `Cc1cc(F)ccc1Oc1cc(Cl)c(Cl)cc1C(=O)Nc1ccc(C(=O)O)cc1` ?
Reply: 15

Query: What value of measured IC50 is listed for `O=C(O)c1ccc(NC(=O)c2cc(Cl)c(Cl)cc2Oc2ccc(OCC(F)(F)F)cc2)cn1` ?
Reply: 50

Query: What value of measured IC50 is listed for `COc1cc(F)ccc1Oc1cc(C(F)(F)C(F)(F)F)ccc1C(=O)Nc1ccc(C(=O)O)cc1` ?
Reply: 20

Query: What value of measured IC50 is listed for `COc1ccc(Oc2ccc(C(F)(F)F)cc2C(=O)Nc2ccc(C(=O)O)nc2)c(OC)c1` ?
Reply: 39

Query: What value of measured IC50 is listed for `O=C(O)c1ccc(NC(=O)c2c(Oc3ccc(F)cc3)cc(C(F)(F)F)cc2C(F)(F)F)cc1` ?
Reply: 305

Query: What value of measured IC50 is listed for `O=C(O)c1ccc(NC(=O)c2cc(Cl)c(Cl)cc2Oc2ccc(OC(F)(F)F)cc2)cn1` ?
Reply: 20

Query: What value of measured IC50 is listed for `COc1cc(Cl)ccc1Oc1cc(Cl)c(Cl)cc1C(=O)Nc1ccc(C(=O)O)nc1` ?
Reply: 39

Query: What value of measured IC50 is listed for `O=C(O)c1ccc(NC(=O)c2cc(C(F)(F)F)ccc2Oc2ccccc2Cl)cn1` ?
Reply: 430

----------
# MEASURED ON: human Nav1.8 (Homo sapiens (Human), UniProt Q9Y5Y9)
# ASSAY INFO: E-VIPR optical membrane potential assay with electrical stimulation
# CONDITION DESCRIPTION: HEK cells expressing human Nav1.8
pIC50: −log10 of the molar value.
Everything with pIC50 lower than 7 is Criterion not met; everything else, including exactly 7, is Criterion met.

The following compounds have reported results that may help.
{"MOLECULE SMILES": "COc1cc(Cl)ccc1Oc1cc(Cl)c(Cl)cc1C(=O)Nc1ccc(C(=O)O)cc1", "MEASURED ON": "human Nav1.8 (Homo sapiens (Human), UniProt Q9Y5Y9)", "CLASS": "Criterion met"}
{"MOLECULE SMILES": "O=C(O)c1ccc(NC(=O)c2cc(Cl)c(Cl)cc2Oc2ccccc2OC(F)F)cn1", "MEASURED ON": "human Nav1.8 (Homo sapiens (Human), UniProt Q9Y5Y9)", "CLASS": "Criterion met"}
{"MOLECULE SMILES": "Cc1cc(F)ccc1Oc1cc(C(C)(C)C)ccc1C(=O)Nc1ccc(C(=O)O)nc1", "MEASURED ON": "human Nav1.8 (Homo sapiens (Human), UniProt Q9Y5Y9)", "CLASS": "Criterion met"}

Here's the next entry for you.
Query: Check the entry `O=C(O)c1ccc(NC(=O)c2c(Oc3ccc(F)cc3Cl)cccc2C(F)(F)F)cn1` : does pIC50 equal or exceed 7?
Reply: Criterion not met
